target.system: Acetylcholinesterase (Rattus norvegicus)
Sequence (P37136 whole entry): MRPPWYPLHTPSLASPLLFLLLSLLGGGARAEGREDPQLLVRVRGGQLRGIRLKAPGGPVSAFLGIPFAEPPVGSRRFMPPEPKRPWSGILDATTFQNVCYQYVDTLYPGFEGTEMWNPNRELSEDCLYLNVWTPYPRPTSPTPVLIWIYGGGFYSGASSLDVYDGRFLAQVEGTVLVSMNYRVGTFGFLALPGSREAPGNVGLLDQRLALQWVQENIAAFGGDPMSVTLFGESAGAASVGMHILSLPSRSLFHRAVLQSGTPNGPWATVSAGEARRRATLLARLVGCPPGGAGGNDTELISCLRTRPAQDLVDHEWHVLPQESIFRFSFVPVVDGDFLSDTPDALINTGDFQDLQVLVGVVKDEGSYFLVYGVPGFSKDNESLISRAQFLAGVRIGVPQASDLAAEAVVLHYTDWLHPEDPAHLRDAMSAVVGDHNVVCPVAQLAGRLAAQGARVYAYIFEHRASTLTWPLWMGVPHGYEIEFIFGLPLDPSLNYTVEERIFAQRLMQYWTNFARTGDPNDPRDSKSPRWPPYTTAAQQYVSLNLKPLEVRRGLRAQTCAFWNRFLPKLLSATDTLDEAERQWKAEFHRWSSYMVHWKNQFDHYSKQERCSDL
API: label(entry) gives 1 (yes) if the entry's IC50 is strictly smaller than 40 nM; on equality or larger values it gives 0 (no).

[in] Please let me know if Oc1ccc2c(n1)CCCC2NCCCCNc1c2c(nc3ccccc13)CCCC2 (racemic) shows IC50 below 40 nM.
[out] 0 (no)

[in] Determine if O=c1ccc2c([nH]1)CCCC2NCCCCCCCCNc1c2c(nc3ccccc13)CCCC2 (racemic) shows IC50 strictly lower than 40 nM.
[out] 1 (yes)

[in] Does the reported IC50 of the following molecule sit strictly below 40 nM? Oc1ccc2c(n1)CCCC2NCCCCCCNc1c2c(nc3ccccc13)CCCC2 (racemic)
[out] 1 (yes)

[in] Criterion: IC50 strictly below 40 nM. Is it met by O=c1ccc2c([nH]1)CCCC2NCCCCCCCCCCCCNc1c2c(nc3ccccc13)CCCC2 (racemic) ?
[out] 0 (no)

[in] Threshold test, IC50 < 40 nM: Oc1ccc2c(n1)CCCC2NCCCCCNc1c2c(nc3ccccc13)CCCC2 (racemic)
[out] 0 (no)

[in] Determine whether this molecule shows IC50 lower than 40 nM (ties excluded): Oc1ccc2c(n1)CCCC2NCCCCCCCCCNc1c2c(nc3ccccc13)CCCC2 (racemic)
[out] 1 (yes)

[in] Could you please tell me whether IC50 recorded for Oc1ccc2c(n1)CCCC2NCCCCCCCNc1c2c(nc3ccccc13)CCCC2 (racemic) is less than 40 nM?
[out] 0 (no)
